# METHOD_SUMMARY: The drug is tested on WLS-220 corresponding to human gut metagenome with ENA study accession number: PRJEB37062 and ENA sample accession number: ERS12561769 for biotransformation under anaerobic condition. The drug concentrations were measured over 9 timepoints collected between 0 and 24 hours of incubation by liquid-chromatography-coupled mass spectrometry (LC–MS); also: call rule not given here
# CONDITION_LABEL: 2 µM
EXPERIMENTAL_ENDPOINT: Bacterial Biotransformation

INSERT INTO results (molecule, experimental_endpoint, reported_value) VALUES
  ('COc1ccc([C@@H]2Sc3ccccc3N(CCN(C)C)C(=O)[C@@H]2OC(C)=O)cc1', 'Bacterial Biotransformation', 'Compound metabolized'),
  ('CCS(=O)(=O)CCn1c([N+](=O)[O-])cnc1C', 'Bacterial Biotransformation', 'Compound metabolized'),
  ('CN1CCN(C2=Nc3ccccc3Oc3ccc(Cl)cc32)CC1.O=C(O)CCC(=O)O [LOXAPINE SUCCINATE]', 'Bacterial Biotransformation', 'Compound NOT metabolized'),
  ('C#C[C@]1(OC(C)=O)CC[C@H]2[C@@H]3CCC4=C/C(=N/O)CC[C@@H]4[C@H]3CC[C@@]21CC [NORGESTIMATE]', 'Bacterial Biotransformation', 'Compound metabolized'),
  ('CC(C)NCC(O)COc1ccc(CC(N)=O)cc1 (configuration not stated)', 'Bacterial Biotransformation', 'Compound NOT metabolized');

# input Look up and report measured Bacterial Biotransformation for this entry: CCCN1C[C@H](CSC)C[C@@H]2c3cccc4[nH]cc(c34)C[C@H]21.CS(=O)(=O)O [PERGOLIDE MESYLATE]
# output Compound NOT metabolized

# input State its Bacterial Biotransformation for this molecule: Nc1nnc(-c2cccc(Cl)c2Cl)c(N)n1
# output Compound NOT metabolized
